Biological target: α5β3 GABAA receptors (Rattus norvegicus, UniProt P19969+P63079)
Construct: expressed in transfected cells; host or cells: Xenopus laevis oocytes, mRNA injected
Sequence (P19969 32-464 limits assumed, one chain of several): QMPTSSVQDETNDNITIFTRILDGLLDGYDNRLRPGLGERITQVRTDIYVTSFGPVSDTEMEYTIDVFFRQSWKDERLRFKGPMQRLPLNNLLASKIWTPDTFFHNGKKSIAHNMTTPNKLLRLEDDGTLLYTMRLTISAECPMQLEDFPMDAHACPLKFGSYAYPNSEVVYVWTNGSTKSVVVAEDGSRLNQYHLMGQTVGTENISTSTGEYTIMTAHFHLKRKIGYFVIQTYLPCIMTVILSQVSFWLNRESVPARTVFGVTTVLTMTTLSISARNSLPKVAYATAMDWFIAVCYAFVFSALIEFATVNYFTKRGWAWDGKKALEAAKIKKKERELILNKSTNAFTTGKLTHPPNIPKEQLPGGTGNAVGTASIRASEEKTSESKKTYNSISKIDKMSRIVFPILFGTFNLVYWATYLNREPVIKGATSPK
Experiment: Two electrode voltage clamp in Xenopus laevis oocytes, α5β3
Type: cell-based
Excerpt: cDNA’s of rat GABAA receptor subunits α1, α4, β1, β2, β3 and γ2S were cloned as described. cDNAs of the rat subunits α2, α3 and α5 were gifts from P. Malherbe, that of α6 and γ1 were gifts of P. Seeburg and that of δ was a gift of C. Czajkowski. The mutants were constructed using the Q5 Site-Directed Mutagenesis Kit (New England Biolabs) following manufacturer’s instruction. […]
MEASUREMENT NAME: pEC50
Numbers only, as −log10 of the molar value.

Q. I have this compound here, Cc1ccc(-n2nc3c4cc(Cl)ccc4[nH]cc-3c2=O)cc1 , and I need its recorded pEC50.
A. 5.21

====

molecular target: α1β3 GABAA receptors (Rattus norvegicus, UniProt P62813+P63079); construct: expressed in transfected cells; host or cells: Xenopus laevis oocytes, mRNA injected; experiment: Two electrode voltage clamp in Xenopus laevis oocytes, α1β3; assay type: cell-based; conditions: α1β3
MEASUREMENT NAME: Hill slope (nH)
Give bare numbers.

Sample answers from the record:
Nc1ccc(-n2nc3c4cc(Cl)ccc4[nH]cc-3c2=O)cc1 :: 1.1
Cc1ccc(-n2nc3c4cc(Cl)ccc4[nH]cc-3c2=O)cc1 :: 1.9
COc1ccc(-n2nc3c4cc(OC)ccc4[nH]cc-3c2=O)cc1 :: 1.9

In the following, a different compound is considered.
Q. I have this compound here, COc1ccc(-n2nc3c4cc(Cl)ccc4[nH]cc-3c2=O)cc1 , and I need its recorded Hill slope (nH).
A. 1.5

====

biological target: α3β3γ2 GABAA receptors (Rattus norvegicus, UniProt P20236+P63079); construct: expressed in transfected cells; host or cells: Xenopus laevis oocytes, mRNA injected; experiment: Two electrode voltage clamp in Xenopus laevis oocytes, α3β3γ2; type: cell-based; details: co-applied with GABA EC3-5
Sequence (P20236 29-493, one chain of several): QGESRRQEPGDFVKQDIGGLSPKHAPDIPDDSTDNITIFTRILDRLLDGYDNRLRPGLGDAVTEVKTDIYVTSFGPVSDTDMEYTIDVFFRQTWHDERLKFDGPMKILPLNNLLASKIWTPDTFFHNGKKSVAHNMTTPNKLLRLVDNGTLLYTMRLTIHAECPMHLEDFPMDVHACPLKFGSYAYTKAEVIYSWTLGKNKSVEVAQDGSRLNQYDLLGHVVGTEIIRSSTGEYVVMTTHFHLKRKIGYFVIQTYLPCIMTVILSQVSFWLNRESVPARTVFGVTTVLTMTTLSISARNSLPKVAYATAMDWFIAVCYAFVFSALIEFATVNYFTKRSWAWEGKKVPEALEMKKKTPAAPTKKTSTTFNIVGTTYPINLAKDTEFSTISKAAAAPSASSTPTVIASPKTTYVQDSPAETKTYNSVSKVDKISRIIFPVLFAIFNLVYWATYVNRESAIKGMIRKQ
MEASUREMENT NAME: EC50 (µM)
Give bare numbers, in µM.

Q. I have this compound here, Cc1ccc(-n2nc3c4cc(Cl)ccc4[nH]cc-3c2=O)cc1 , and I need its recorded EC50.
A. 7.2

====

target: α2β3 GABAA receptors (Rattus norvegicus, UniProt P23576+P63079); construct: expressed in transfected cells; host or cells: Xenopus laevis oocytes, mRNA injected; assay: Two electrode voltage clamp in Xenopus laevis oocytes, α2β3; assay type: cell-based; conditions: read-out: EC50
Sequence (P23576 29-451, one chain of several): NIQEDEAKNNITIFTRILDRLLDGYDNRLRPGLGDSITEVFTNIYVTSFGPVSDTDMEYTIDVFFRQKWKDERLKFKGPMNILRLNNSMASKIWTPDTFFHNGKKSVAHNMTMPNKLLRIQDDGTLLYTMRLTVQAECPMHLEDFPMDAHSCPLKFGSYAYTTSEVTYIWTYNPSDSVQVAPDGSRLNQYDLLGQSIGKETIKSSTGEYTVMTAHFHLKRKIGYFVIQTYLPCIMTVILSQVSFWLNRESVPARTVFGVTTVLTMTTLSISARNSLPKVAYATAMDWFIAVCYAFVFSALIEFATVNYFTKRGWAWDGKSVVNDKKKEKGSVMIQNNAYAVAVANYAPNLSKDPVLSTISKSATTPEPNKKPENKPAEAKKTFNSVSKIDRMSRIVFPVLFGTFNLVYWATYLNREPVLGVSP
MEASUREMENT NAME: EC50 (µM)
Numbers only, in µM.

Q. Lab request: please report EC50 under test system α2β3 GABAA receptors (Rattus norvegicus, UniProt P23576+P63079) for Nc1ccc(-n2nc3c4cc(Cl)ccc4[nH]cc-3c2=O)cc1
A. 5.1

====

target: α1β1R41N GABAA receptors (Rattus norvegicus, UniProt P15431+P62813, R66N); construct: expressed in transfected cells; host or cells: Xenopus laevis oocytes, mRNA injected; experiment: Two electrode voltage clamp in Xenopus laevis oocytes, mutant α1β1R41N; assay type: cell-based; details: 10μM, read-out: % of control current at EC3-5
Sequence (P15431 26-474 R66N, one chain of several): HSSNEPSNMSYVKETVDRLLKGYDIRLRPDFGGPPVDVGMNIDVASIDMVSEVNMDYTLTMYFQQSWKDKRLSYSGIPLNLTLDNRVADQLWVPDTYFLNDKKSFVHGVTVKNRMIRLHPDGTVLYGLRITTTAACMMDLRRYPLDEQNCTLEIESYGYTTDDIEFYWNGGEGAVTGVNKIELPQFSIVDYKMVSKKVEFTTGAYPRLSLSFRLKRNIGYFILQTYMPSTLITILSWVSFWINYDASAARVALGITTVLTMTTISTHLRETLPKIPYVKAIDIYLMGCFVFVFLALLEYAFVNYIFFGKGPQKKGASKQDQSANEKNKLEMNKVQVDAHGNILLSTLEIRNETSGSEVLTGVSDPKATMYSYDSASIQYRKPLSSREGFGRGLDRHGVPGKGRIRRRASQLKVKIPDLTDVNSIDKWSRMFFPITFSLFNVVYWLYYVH
Entries whose current as % of control at 10 µM is below 70% take t; entries at or above 70% take f.

COc1ccc(-n2nc3c4cc(Cl)ccc4[nH]cc-3c2=O)cc1 :: f
Nc1ccc(-n2nc3c4cc(Cl)ccc4[nH]cc-3c2=O)cc1 :: f
COc1ccc2[nH]cc3c(=O)n(-c4ccc(C)cc4)nc-3c2c1 :: f
COc1ccc(-n2nc3c4cc(OC)ccc4[nH]cc-3c2=O)cc1 :: f

Here is another molecule to look at.
Q. For Cc1ccc(-n2nc3c4cc(Cl)ccc4[nH]cc-3c2=O)cc1 , is the recorded current as % of control at 10 µM below the cut-off of 70%?
A. t

====

target: α1β2 GABAA receptors (Rattus norvegicus, UniProt P62813+P63138); assay: Two electrode voltage clamp in Xenopus laevis oocytes, α1β2
Sequence (P63138 25-474 limits assumed, one chain of several): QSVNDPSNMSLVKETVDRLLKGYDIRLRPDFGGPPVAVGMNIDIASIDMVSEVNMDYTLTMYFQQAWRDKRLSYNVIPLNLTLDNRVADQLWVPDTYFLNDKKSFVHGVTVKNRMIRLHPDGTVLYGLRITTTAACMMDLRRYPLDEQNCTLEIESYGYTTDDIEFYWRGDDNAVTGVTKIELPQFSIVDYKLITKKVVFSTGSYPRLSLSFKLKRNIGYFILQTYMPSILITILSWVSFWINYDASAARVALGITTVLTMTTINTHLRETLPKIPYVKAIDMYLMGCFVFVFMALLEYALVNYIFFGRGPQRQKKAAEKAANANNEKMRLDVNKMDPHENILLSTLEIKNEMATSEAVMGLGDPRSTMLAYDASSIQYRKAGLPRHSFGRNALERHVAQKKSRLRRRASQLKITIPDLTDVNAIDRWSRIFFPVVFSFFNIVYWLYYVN
Assignment: determine reported EC50 for the given compounds.
Give bare numbers, in nM.

COc1ccc(-n2nc3c4cc(Cl)ccc4[nH]cc-3c2=O)cc1 [Compound 1] :: 1150
COc1ccc2[nH]cc3c(=O)n(-c4ccc(C)cc4)nc-3c2c1 [Compound 5] :: 3740
Cc1ccc(-n2nc3c4cc(Cl)ccc4[nH]cc-3c2=O)cc1 [Compound 2] :: 4310
Nc1ccc(-n2nc3c4cc(Cl)ccc4[nH]cc-3c2=O)cc1 [Compound 3] :: 1050

In the following, a different compound is considered.
Q. I have this compound here, COc1ccc(-n2nc3c4cc(OC)ccc4[nH]cc-3c2=O)cc1 [Compound 4] , and I need its recorded EC50.
A. 2620

====

Assignment: determine reported EC50 for the given compounds.
biological target: α1β3N41R GABAA receptors (Rattus norvegicus, UniProt P62813+P63079, N66R); assay: Two electrode voltage clamp in Xenopus laevis oocytes, mutant α1β3N41R; conditions: co-applied with GABA EC3-5, read-out: EC50 values for the mutated receptors
Sequence (P63079 26-473 N66R, one chain of several): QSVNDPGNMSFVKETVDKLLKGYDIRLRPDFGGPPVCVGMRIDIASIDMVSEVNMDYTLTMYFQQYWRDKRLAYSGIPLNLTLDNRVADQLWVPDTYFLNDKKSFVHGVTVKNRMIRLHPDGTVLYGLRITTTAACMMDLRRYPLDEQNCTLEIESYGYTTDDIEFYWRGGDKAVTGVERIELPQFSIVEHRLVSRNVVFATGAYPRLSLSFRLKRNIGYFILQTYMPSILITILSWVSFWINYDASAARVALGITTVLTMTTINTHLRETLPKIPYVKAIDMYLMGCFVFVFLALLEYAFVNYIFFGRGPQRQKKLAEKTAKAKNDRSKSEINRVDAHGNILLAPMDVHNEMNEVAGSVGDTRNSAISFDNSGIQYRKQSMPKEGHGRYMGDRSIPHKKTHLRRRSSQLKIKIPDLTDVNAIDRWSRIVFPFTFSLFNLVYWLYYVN
One number for each entry, in nM.

Nc1ccc(-n2nc3c4cc(Cl)ccc4[nH]cc-3c2=O)cc1 [Compound 3] :: 200
Cc1ccc(-n2nc3c4cc(Cl)ccc4[nH]cc-3c2=O)cc1 [Compound 2] :: 3440
COc1ccc2[nH]cc3c(=O)n(-c4ccc(N)cc4)nc-3c2c1 [Compound 6] :: 1870
COc1ccc(-n2nc3c4cc(OC)ccc4[nH]cc-3c2=O)cc1 [Compound 4] :: 1200
COc1ccc(-n2nc3c4cc(Cl)ccc4[nH]cc-3c2=O)cc1 [Compound 1] :: 980

Q. I have this compound here, COc1ccc2[nH]cc3c(=O)n(-c4ccc(C)cc4)nc-3c2c1 [Compound 5] , and I need its recorded EC50.
A. 2470

====

Assignment: determine reported pEC50 for the given molecules.
target: α1β1 GABAA receptors (Rattus norvegicus, UniProt P15431+P62813); construct: expressed in transfected cells; host or cells: Xenopus laevis oocytes, mRNA injected; test: Two electrode voltage clamp in Xenopus laevis oocytes, α1β1; type: cell-based; conditions: α1β1; co-applied with GABA EC3-5; read-out: EC50
Sequence (P62813 28-455): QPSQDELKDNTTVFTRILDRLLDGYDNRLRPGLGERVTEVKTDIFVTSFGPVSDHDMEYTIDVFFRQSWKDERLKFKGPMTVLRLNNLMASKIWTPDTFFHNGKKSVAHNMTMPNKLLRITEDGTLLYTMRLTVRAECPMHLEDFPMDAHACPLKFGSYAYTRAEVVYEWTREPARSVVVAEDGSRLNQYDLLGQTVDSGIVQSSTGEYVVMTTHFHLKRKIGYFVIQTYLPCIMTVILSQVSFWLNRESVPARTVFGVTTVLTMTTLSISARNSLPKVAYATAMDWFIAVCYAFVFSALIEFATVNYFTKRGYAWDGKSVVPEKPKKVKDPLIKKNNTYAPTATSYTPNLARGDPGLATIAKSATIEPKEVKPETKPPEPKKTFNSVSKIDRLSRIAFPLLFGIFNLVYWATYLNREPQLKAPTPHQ
Sequence (P15431 26-474): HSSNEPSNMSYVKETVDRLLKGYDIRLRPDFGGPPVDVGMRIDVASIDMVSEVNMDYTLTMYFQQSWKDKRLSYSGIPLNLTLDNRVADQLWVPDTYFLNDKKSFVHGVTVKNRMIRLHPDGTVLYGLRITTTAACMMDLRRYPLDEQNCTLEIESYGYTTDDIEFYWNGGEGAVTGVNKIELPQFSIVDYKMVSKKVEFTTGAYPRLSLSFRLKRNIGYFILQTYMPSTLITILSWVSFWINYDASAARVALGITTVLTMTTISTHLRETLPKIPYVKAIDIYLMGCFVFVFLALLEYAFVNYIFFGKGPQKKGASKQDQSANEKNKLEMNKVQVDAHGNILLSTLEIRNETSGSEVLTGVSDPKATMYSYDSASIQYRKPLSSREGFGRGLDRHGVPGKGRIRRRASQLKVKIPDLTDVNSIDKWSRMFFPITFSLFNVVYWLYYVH
Answers are plain numbers, as −log10 of the molar value.

Nc1ccc(-n2nc3c4cc(Cl)ccc4[nH]cc-3c2=O)cc1 :: 6.66
COc1ccc2[nH]cc3c(=O)n(-c4ccc(N)cc4)nc-3c2c1 :: 6.19
COc1ccc(-n2nc3c4cc(OC)ccc4[nH]cc-3c2=O)cc1 :: 6.68
Cc1ccc(-n2nc3c4cc(Cl)ccc4[nH]cc-3c2=O)cc1 :: 6.11

In the following, a different molecule is considered.
Q. I have this molecule here, COc1ccc2[nH]cc3c(=O)n(-c4ccc(C)cc4)nc-3c2c1 , and I need its recorded pEC50.
A. 6.15

====

biological target: α4β3γ2 GABAA receptors (Rattus norvegicus, UniProt P28471+P63079); construct: expressed in transfected cells; host or cells: Xenopus laevis oocytes, mRNA injected; assay: Two electrode voltage clamp in Xenopus laevis oocytes, α4β3γ2; format: cell-based
Sequence (P28471 36-552): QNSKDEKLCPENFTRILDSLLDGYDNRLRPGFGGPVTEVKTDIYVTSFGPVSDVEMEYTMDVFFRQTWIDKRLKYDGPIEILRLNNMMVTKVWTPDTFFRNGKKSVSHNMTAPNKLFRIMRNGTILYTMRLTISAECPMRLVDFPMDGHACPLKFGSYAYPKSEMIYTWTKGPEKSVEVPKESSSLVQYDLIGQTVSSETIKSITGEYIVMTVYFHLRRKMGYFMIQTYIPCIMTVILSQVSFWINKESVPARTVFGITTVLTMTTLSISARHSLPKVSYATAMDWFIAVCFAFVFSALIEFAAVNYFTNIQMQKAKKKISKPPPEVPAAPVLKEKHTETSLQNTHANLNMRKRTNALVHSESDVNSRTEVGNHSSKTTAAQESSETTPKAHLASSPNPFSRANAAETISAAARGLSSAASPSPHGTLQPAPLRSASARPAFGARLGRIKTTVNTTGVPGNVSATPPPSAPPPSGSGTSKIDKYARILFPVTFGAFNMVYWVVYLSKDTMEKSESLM
Sequence (P63079 26-473): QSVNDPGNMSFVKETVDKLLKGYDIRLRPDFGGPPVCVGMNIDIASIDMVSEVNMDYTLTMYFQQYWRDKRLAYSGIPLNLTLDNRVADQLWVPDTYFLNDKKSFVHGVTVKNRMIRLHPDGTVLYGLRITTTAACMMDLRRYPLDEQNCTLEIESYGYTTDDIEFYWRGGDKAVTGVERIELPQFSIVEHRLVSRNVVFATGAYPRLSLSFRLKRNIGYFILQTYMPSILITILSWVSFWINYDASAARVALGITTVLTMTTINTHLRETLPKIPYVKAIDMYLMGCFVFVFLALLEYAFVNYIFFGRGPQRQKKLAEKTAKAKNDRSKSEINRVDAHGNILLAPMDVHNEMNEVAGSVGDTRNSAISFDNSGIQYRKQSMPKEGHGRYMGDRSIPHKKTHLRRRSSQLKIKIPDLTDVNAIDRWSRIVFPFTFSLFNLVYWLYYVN
Sequence (P18508 39-466 partner): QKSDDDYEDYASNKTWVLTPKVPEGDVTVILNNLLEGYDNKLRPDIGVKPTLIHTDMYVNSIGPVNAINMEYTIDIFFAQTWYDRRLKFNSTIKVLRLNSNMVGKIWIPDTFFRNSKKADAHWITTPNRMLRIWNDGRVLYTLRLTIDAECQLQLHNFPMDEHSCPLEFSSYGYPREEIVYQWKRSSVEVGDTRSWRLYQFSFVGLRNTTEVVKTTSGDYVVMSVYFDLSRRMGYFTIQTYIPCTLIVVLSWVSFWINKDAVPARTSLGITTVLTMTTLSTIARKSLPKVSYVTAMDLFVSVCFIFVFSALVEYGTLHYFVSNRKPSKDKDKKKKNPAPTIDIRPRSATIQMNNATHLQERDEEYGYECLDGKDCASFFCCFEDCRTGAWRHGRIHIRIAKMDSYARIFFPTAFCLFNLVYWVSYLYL
MEASUREMENT NAME: EC50 (µM)
Numbers only, in µM.

Q. I have this compound here, Cc1ccc(-n2nc3c4cc(Cl)ccc4[nH]cc-3c2=O)cc1 [Compound 2] , and I need its recorded EC50.
A. 13.4

====

target: α1β2 GABAA receptors (Rattus norvegicus, UniProt P62813+P63138); construct: expressed in transfected cells; host or cells: Xenopus laevis oocytes, mRNA injected; test: Two electrode voltage clamp in Xenopus laevis oocytes, α1β2; format: cell-based; conditions: α1β2
Assignment: determine reported Hill slope (nH) for the given molecules.
Numbers only.

Cc1ccc(-n2nc3c4cc(Cl)ccc4[nH]cc-3c2=O)cc1 [Compound 2] :: 2.0
Nc1ccc(-n2nc3c4cc(Cl)ccc4[nH]cc-3c2=O)cc1 [Compound 3] :: 2.0
COc1ccc(-n2nc3c4cc(Cl)ccc4[nH]cc-3c2=O)cc1 [Compound 1] :: 1.1
COc1ccc2[nH]cc3c(=O)n(-c4ccc(C)cc4)nc-3c2c1 [Compound 5] :: 2.8

In the following, a different molecule is considered.
Q. Lab request: please report Hill slope (nH) under test system α1β2 GABAA receptors (Rattus norvegicus, UniProt P62813+P63138) for COc1ccc(-n2nc3c4cc(OC)ccc4[nH]cc-3c2=O)cc1 [Compound 4]
A. 1.3

====

Target: α1β3 GABAA receptors (Rattus norvegicus, UniProt P62813+P63079)
Construct: expressed in transfected cells; host or cells: Xenopus laevis oocytes, mRNA injected
Assay: Two electrode voltage clamp in Xenopus laevis oocytes, α1β3
Type: cell-based
Conditions: read-out: efficacy, % of control current (GABA EC3-5 = 100%), α1β3; 100 nM
From the text: cDNA’s of rat GABAA receptor subunits α1, α4, β1, β2, β3 and γ2S were cloned as described. cDNAs of the rat subunits α2, α3 and α5 were gifts from P. Malherbe, that of α6 and γ1 were gifts of P. Seeburg and that of δ was a gift of C. Czajkowski. The mutants were constructed using the Q5 Site-Directed Mutagenesis Kit (New England Biolabs) following manufacturer’s instruction. […]
MEASUREMENT NAME: activity at 0.1 µM (%)
Numbers only, in %.

I need activity at 0.1 µM for every entry listed below, if you could help.
1. Nc1ccc(-n2nc3c4cc(Cl)ccc4[nH]cc-3c2=O)cc1 [Compound 3]
2. COc1ccc2[nH]cc3c(=O)n(-c4ccc(C)cc4)nc-3c2c1 [Compound 5]
3. COc1ccc2[nH]cc3c(=O)n(-c4ccc(N)cc4)nc-3c2c1 [Compound 6]
4. Cc1ccc(-n2nc3c4cc(Cl)ccc4[nH]cc-3c2=O)cc1 [Compound 2]

A.
125
126
95
109
